Source listed as patent US11209437B2.

Experiment Summary: Viscosity responsiveness: fluorescence emission spectra of probes in glycerol and methanol
Format: physicochemical
Run Conditions: probe 1×10^−5 M
Below, each of the compounds is paired with its reported Fluorescence ratio in glycerol to methanol value.
Respond with the number and no other words.

Solved entries:
>>> print(df.to_string())
                               input_smiles  quantitative_readout
0  COCCNC(=O)/C(C#N)=C/c1ccc(-c2ccc(N(C)CCOC(=O)NCc3ccc(COc4nc(N)nc5[nH]cnc45)cc3)cc2)s1                   276
1  CN(CCOC(=O)NCc1ccc(COc2cc(Cl)nc(N)n2)cc1)c1ccc(/C=C(\C#N)c2nc3ccccc3s2)cc1                  1183

# input for lookup
Kindly note the recorded Fluorescence ratio in glycerol to methanol for CN(CCOC(=O)NCc1ccc(COc2cc(Cl)nc(N)n2)cc1)c1ccc2nc(/C=C(\C#N)C(=O)OC(C)(C)C)oc2c1 , which is 1459
